# Lookup of reported pIC50 keyed by entry
system: SARS-CoV-2 Wk-521 strain; assay: SARS-CoV-2 infection assay, viral RNA in culture supernatant (VeroE6/TMPRSS2 cells); format: cell-based; conditions: Severe acute respiratory syndrome coronavirus 2; SARS-CoV-2 viral RNA in culture supernatant, 24 h post-inoculation; VeroE6/TMPRSS2 cells; read-out: IC50
The scale used: pIC50 is minus the common logarithm of the concentration in molar units.

CC[C@@](O)(CCc1cccnc1)[C@H]1CC[C@H]2[C@@H]3CC[C@H]4C[C@@H](O)CC[C@]4(C)[C@H]3CC[C@]12C [Oxy232] : 5.27

Consider the record given below.
Given CC(C)CCC[C@@H](C)[C@H]1CC[C@H]2[C@@H]3C(=O)C=C4C[C@@H](O)CC[C@]4(C)[C@H]3CC[C@]12C [Oxy 7-KC, 7-ketocholesterol, reference compound] , state its recorded pIC50.
4.84

====

test system: VeroE6/TMPRSS2 cells; details: read-out: CC50 (VeroE6); VeroE6
# Lookup of reported CC50 keyed by entry

C[C@]12CC[C@H]3[C@@H](CC=C4C[C@@H](O)CC[C@@]43C)[C@@H]1CC[C@@H]2[C@](C)(O)CCc1cccnc1 : > 15 µM

Consider the record given below.
Given CCC(CC)COC(=O)[C@H](C)N[P@](=O)(OC[C@H]1O[C@@](C#N)(c2ccc3c(N)ncnn23)[C@H](O)[C@@H]1O)Oc1ccccc1 [RDV, remdesivir, reference compound] , state its recorded CC50.
> 10 µM

====

assay: in vitro; settings: African green monkey
# Lookup of reported CC50 keyed by entry

Below, 2 molecules whose answers are already recorded.
CC[C@@](O)(CCc1cccnc1)[C@H]1CC[C@H]2[C@@H]3CC[C@H]4C[C@@H](O)CC[C@]4(C)[C@H]3CC[C@]12C : > 15 µM
CCC(CC)COC(=O)[C@H](C)N[P@](=O)(OC[C@H]1O[C@@](C#N)(c2ccc3c(N)ncnn23)[C@H](O)[C@@H]1O)Oc1ccccc1 [RDV, remdesivir, reference compound] : > 10 µM

Consider the record given below.
Given C[C@]12CC[C@H]3[C@@H](CC=C4C[C@@H](O)CC[C@@]43C)[C@@H]1CC[C@@H]2[C@](C)(O)CCc1cccnc1 , state its recorded CC50.
> 15 µM

====

experiment: in vitro; conditions: human
measure name: CC50 (µM)
Give a bare numeral; the unit µM is implied.

CC[C@@](O)(CCc1cccnc1)[C@H]1CC[C@H]2[C@@H]3CC[C@H]4C[C@@H](O)CC[C@]4(C)[C@H]3CC[C@]12C : 29.4

Given C[C@]12CC[C@H]3[C@@H](CC=C4C[C@@H](O)CC[C@@]43C)[C@@H]1CC[C@@H]2[C@](C)(O)CCc1cccnc1 , state its recorded CC50.
8.3

====

settings: read-out: peak plasma concentration (Cmax); single oral dose 200 mg/kg; 200 mg/kg
measure name: Cmax (µM)
Give a bare numeral; the unit µM is implied.

Given C[C@]12CC[C@H]3[C@@H](CC=C4C[C@@H](O)CC[C@@]43C)[C@@H]1CC[C@@H]2[C@](C)(O)CCc1cccnc1 , state its recorded Cmax.
19.4

====

# Lookup of reported CC50 keyed by entry
tested on: VeroE6/TMPRSS2 cells; conditions: MTT assay; 24 h; VeroE6/TMPRSS2 cells

Below, 2 compounds whose answers are already recorded.
CC(C)CCC[C@@H](C)[C@H]1CC[C@H]2[C@@H]3CC=C4C[C@@H](O)CC[C@]4(C)[C@H]3CC[C@]12C [Cholesterol, reference compound] : > 30 µM
C[C@@H](CO)CCC[C@@H](C)[C@H]1CC[C@H]2[C@@H]3CC=C4C[C@@H](O)CC[C@]4(C)[C@H]3CC[C@]12C [Oxy 27-OHC, 27-hydroxycholesterol, reference compound] : > 30 µM

Consider the record given below.
Given CC(C)CC[C@@H](O)[C@@H](C)[C@H]1CC[C@H]2[C@@H]3CC=C4C[C@@H](O)CC[C@]4(C)[C@H]3CC[C@]12C [22(R)-OHC, 22(R)-hydroxycholesterol, reference compound] , state its recorded CC50.
> 30 µM
